- Test system: Proteus vulgaris
- Experimental Details: in vitro anti-bacterial activity, two-fold agar plate dilution method
- Assay type: cell-based
- Assay Setup: 20 h
- Experimental: The agent for preventing and treating bacterial infections was tested for in vitro anti-bacterial activity by the following two-fold agar plate dilution method. Each test strain was incubated for 20 hours in a bouillon for measuring sensitivity to obtain a test culture (containing about 10% live cells/ml). […] The minimum growth inhibitory concentration (MIC) in μg/ml was then determined. […]
Reported MIC values are given for each entry in this list.

Compound | Units Symbol | MIC
C#CCn1cc[n+](CC2=C(C(=O)[O-])N3C(=O)C(NC(=O)/C(=N\OC)c4csc(N)n4)C3SC2)c1 (stereo not shown) [Compound G] | µg/mL | 0.2
C=Cn1cc[n+](CC2=C(C(=O)[O-])N3C(=O)C(NC(=O)/C(=N\OC(C)(C)C(=O)O)c4csc(N)n4)C3SC2)c1 (stereo not shown) [Compound M] | µg/mL | 0.1
C=CCn1c[n+](CC2=C(C(=O)[O-])N3C(=O)C(NC(=O)/C(=N\OC(C)(C)C(=O)O)c4csc(N)n4)C3SC2)c2ccccc21 (stereo not shown) [U] | µg/mL | 0.39
C=CCO/N=C(\C(=O)NC1C(=O)N2C(C(=O)[O-])=C(C[n+]3cn(CC=C)c4ccccc43)CSC12)c1csc(N)n1 (stereo not shown) [W] | µg/mL | 3.13

====

- System: Klebsiella pneumoniae
- Experimental Details: in vitro anti-bacterial activity, two-fold agar plate dilution method
- Type: cell-based
- Assay Setup: 20 h
Reported MIC values are given for each entry in this list.

Compound | MIC / µg/mL
CC(C)(O/N=C(\C(=O)NC1C(=O)N2C(C(=O)[O-])=C(C[n+]3ccn(C4CCCCC4)c3)CSC12)c1csc(N)n1)C(=O)O (stereo not shown) | 0.78
CCCCCCn1cc[n+](CC2=C(C(=O)[O-])N3C(=O)C(NC(=O)/C(=N\OC(C)(C)C(=O)O)c4csc(N)n4)C3SC2)c1 (stereo not shown) | 1.56
C=CCO/N=C(\C(=O)NC1C(=O)N2C(C(=O)[O-])=C(C[n+]3ccn(CC=C)c3)CSC12)c1csc(N)n1 (stereo not shown) | 1.56
C#CCn1cc[n+](CC2=C(C(=O)[O-])N3C(=O)C(NC(=O)/C(=N\OCC=C)c4csc(N)n4)C3SC2)c1 (stereo not shown) | 0.78
C#CCn1cc[n+](CC2=C(C(=O)[O-])N3C(=O)C(NC(=O)/C(=N\OC(C)(C)C(=O)O)c4csc(N)n4)C3SC2)c1 (stereo not shown) | 0.78
Cn1c[n+](CC2=C(C(=O)[O-])N3C(=O)C(NC(=O)/C(=N\OC(C)(C)C(=O)O)c4csc(N)n4)C3SC2)c2ccccc21 (stereo not shown) | 0.78
CC=CCn1c[n+](CC2=C(C(=O)[O-])N3C(=O)C(NC(=O)/C(=N\OC(C)(C)C(=O)O)c4csc(N)n4)C3SC2)c2ccccc21 (stereo not shown) | 3.13

====

Reported log10(MIC) values are given for each entry in this list.
- Test system: Proteus vulgaris
- Experimental Details: in vitro anti-bacterial activity, two-fold agar plate dilution method
- Format: cell-based
- Assay Setup: 20 h
Measurement Kind: log10(MIC) (log10 of the value in µg/mL)

Compound | log10(MIC)
CCCCn1c[n+](CC2=C(C(=O)[O-])N3C(=O)C(NC(=O)/C(=N\OC(C)(C)C(=O)O)c4csc(N)n4)C3SC2)c2ccccc21 (stereo not shown) [T] | -0.11
CC(C)(O/N=C(\C(=O)NC1C(=O)N2C(C(=O)[O-])=C(C[n+]3ccn(-c4ccc(O)cc4)c3)CSC12)c1csc(N)n1)C(=O)O (stereo not shown) [O] | -1.00
CC(C)(O/N=C(\C(=O)NC1C(=O)N2C(C(=O)[O-])=C(C[n+]3cn(Cc4ccccc4)c4ccccc43)CSC12)c1csc(N)n1)C(=O)O (stereo not shown) [P] | 0.19
C=CCn1cc[n+](CC2=C(C(=O)[O-])N3C(=O)C(NC(=O)/C(=N\OC)c4csc(N)n4)C3SC2)c1 (stereo not shown) [F] | -0.41
CC(C)=CCn1c[n+](CC2=C(C(=O)[O-])N3C(=O)C(NC(=O)/C(=N\OC(C)(C)C(=O)O)c4csc(N)n4)C3SC2)c2ccccc21 (stereo not shown) [Y] | 0.50
C=CCO/N=C(\C(=O)NC1C(=O)N2C(C(=O)[O-])=C(C[n+]3ccn(CC=C)c3)CSC12)c1csc(N)n1 (stereo not shown) [Compound A] | 0.19
C#CCn1c[n+](CC2=C(C(=O)[O-])N3C(=O)C(NC(=O)/C(=N\OC(C)(C)C(=O)O)c4csc(N)n4)C3SC2)c2ccccc21 (stereo not shown) [Q] | -1.00
